Some compounds, each annotated with its measured % Mean Degradation of BRD4.
# Test Target: BRD4 short isoform (Homo sapiens, UniProt O60885)
# Construct: endogenous in cells; host or cells: MDA-MB-468
# Experiment Description: BRD4 degradation assay (Western blot, MDA-MB-468 cells), short isoform
# Type: cell-based
# Condition Summary: 48 h, 0.1 μM, MDA-MB-468, n = 2
The response must be a number in % with no trailing unit.

INSERT INTO assay_data (compound, reported_result) VALUES
  ('Cc1sc2c(c1C)C(c1ccc(Cl)cc1)=N[C@@H](CC(=O)NCC(=O)NCCOCc1c(COc3ccc(Cl)c4c3[C@@H](CN3CC5(CC5)CC3=O)N(C(=O)[C@@H]3CCCC[C@]3(C)C(=O)O)CC4)nnn1C)c1nnc(C)n1-2 [Example 3]', 25);

We now examine a further compound.
Query: Give the reported % Mean Degradation of BRD4 for this compound. Cc1sc2c(c1C)C(c1ccc(Cl)cc1)=N[C@@H](CC(=O)NCCOCCNC(=O)[C@@]1(C)CCCC[C@H]1C(=O)N1CCc3c(Cl)ccc(OCc4nnn(C)c4C)c3[C@H]1CN1CC3(CC3)CC1=O)c1nnc(C)n1-2 [Comparative Example 2, reference compound]
Result: −15

----------
# Test Target: BRD4 short isoform (Homo sapiens, UniProt O60885)
# Construct: endogenous in cells; host or cells: MDA-MB-468
# Experiment Description: BRD4 degradation assay (Western blot, MDA-MB-468 cells), short isoform
# Format: cell-based
# Condition Summary: 48 h, 5 μM, MDA-MB-468, n = 2
# Protocol: BRD4 Degradation Assay Protocol Summary MDA-MB-468 cells were cultured routinely in DMEM supplemented with 10% heat inactivated FBS and 1% Penicillin-Streptomycin (Thermofisher Scientific) at 37° C. 5% CO2. […] Lysates were clarified by centrifugation at 13,000 RPM for 10 minutes and the protein concentration of the resulting supernatants determined by BCA assay (ThermoFisher Scientific) as per manufacturer's instructions. […]
Endpoint Name: % Mean Degradation of BRD4

Solved entries (count: 3):
INSERT INTO measurements (molecule, endpoint_name, reported_result) VALUES
  ('Cc1sc2c(c1C)C(c1ccc(Cl)cc1)=N[C@@H](CC(=O)NCC(=O)NCCNC(=O)[C@@]1(C)CCCC[C@H]1C(=O)N1CCc3c(Cl)ccc(OCc4nnn(C)c4C)c3[C@H]1CN1CC3(CC3)CC1=O)c1nnc(C)n1-2 [Comparative Example 1, reference compound]', '% Mean Degradation of BRD4', '28%'),
  ('Cc1sc2c(c1C)C(c1ccc(Cl)cc1)=N[C@@H](CC(=O)NCCOCCNC(=O)[C@@]1(C)CCCC[C@H]1C(=O)N1CCc3c(Cl)ccc(OCc4nnn(C)c4C)c3[C@H]1CN1CC3(CC3)CC1=O)c1nnc(C)n1-2 [Comparative Example 2, reference compound]', '% Mean Degradation of BRD4', '20%'),
  ('Cc1sc2c(c1C)C(c1ccc(Cl)cc1)=N[C@@H](CC(=O)NCCC(=O)NCCOCc1c(COc3ccc(Cl)c4c3[C@@H](CN3CC5(CC5)CC3=O)N(C(=O)[C@@H]3CCCC[C@]3(C)C(=O)O)CC4)nnn1C)c1nnc(C)n1-2 [Example 4]', '% Mean Degradation of BRD4', '77%');

Query: Give the reported % Mean Degradation of BRD4 for this molecule. Cc1sc2c(c1C)C(c1ccc(Cl)cc1)=N[C@@H](CC(=O)NCCOCCC(=O)NCCOCc1c(COc3ccc(Cl)c4c3[C@@H](CN3CC5(CC5)CC3=O)N(C(=O)[C@@H]3CCCC[C@]3(C)C(=O)O)CC4)nnn1C)c1nnc(C)n1-2 [Example 5]
Result: 80%
